Provide the recorded normalized growth for the entries that follow.
test: chemical genetic growth profiling, strain panel (AID 1159580);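 also: tested at 20 µM; growth read once vehicle control cultures reached saturation at 30 °C; 1 = growth at the plate median or of vehicle wells; lower values mean less growth of the strain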; details: S. cerevisiae deletion strains, growth OD, strain wtn01, hits give low values
Hit rate of the full screen: of about 5,500 compounds, about 2,000 (36%) were called active. Roughly 18% stayed inconclusive and do not appear here. Some of the results follow.
One number for each entry.

Some solved entries appear below for comparison.
Nc1ccc(S(=O)(=O)c2ccc(N)cc2)cc1 : 0.983
C#C[C@]1(O)CCC2C3CCC4=CC(=O)CC[C@@H]4C3CC[C@@]21C (some centres undefined) : 0.962
COc1c(CC(=O)c2cc3c(cc2O)OC(C)(C)C(O)C3)ccc2c1C=CC(C)(C)O2 (centres undefined) : 0.972
C[C@H]1[C@H](C)CC[C@]2(CO)CC[C@]3(C)C(=CCC4[C@@]5(C)CC[C@H](O)C(C)(C)C5CC[C@]43C)[C@H]12 (some centres undefined) : 1.01
C/C=C1\[C@H]2C=C(C)C[C@]1(N)c1ccc(=O)[nH]c1C2 : 1.01
COc1ccc2c(c1)c(CC(=O)O)c(C)n2C(=O)c1ccc(Cl)cc1 : 0.985
Cc1ccc(-c2cc(C(F)(F)F)nn2-c2ccc(S(N)(=O)=O)cc2)cc1 : 1.03
COc1cccc(OC)c1OCCNCC1COc2ccccc2O1 (centres undefined) : 0.988

Go through the list and state normalized growth for each entry.
1. CC1(C)CC[C@@]2(C(=O)O)C(C1)C1=CCC3[C@@]4(C)CC[C@H](O)C(C)(C)C4CC[C@@]3(C)[C@]1(C)C[C@@H]2O (some centres undefined)
2. CC1(C)CC[C@]2(C)CC[C@]3(C)C(=CCC4[C@@]5(C)CC[C@H](O)C(C)(C)C5CC[C@]43C)C2C1 (some centres undefined)
3. CC(=O)/C=C\[C@@H]1[C@@]2(C)CCCC(C)(C)C2CC[C@@]1(C)O (some centres undefined)
4. OC(CCN1CCCCC1)(c1ccccc1)C1CCCCC1 (centres undefined)
5. COc1ccc2[nH]cc(CCN)c2c1
6. C[C@@H]1C(=O)O[C@H]2[C@H]1CC[C@@]1(C)C=CC(=O)[C@@]3(C)O[C@@]213
7. NCCC(=O)N[C@@H](Cc1cnc[nH]1)C(=O)O

1. 1.05
2. 1.01
3. 0.94
4. 0.993
5. 1.02
6. 1.03
7. 0.999

Go through the list and state normalized growth for each entry.
1. CCOC(=O)OC(C)OC(=O)C1N2C(=O)C(NC(=O)[C@H](N)c3ccccc3)C2SC1(C)C (some centres undefined)
2. CC(C)(C#N)O[C@@H]1O[C@H](CO)[C@@H](O)[C@H](O)[C@H]1O
3. C#C[C@]1(OC(C)=O)CCC2C3CCC4=CC(=O)CC[C@@H]4C3CC[C@@]21C (some centres undefined)
4. CC(C)=CCCC1(C)C=Cc2c(O)c3c(c(CC=C(C)C)c2O1)OC12C(=CCCC1C(C)(C)O[C@@]2(C/C=C(\C)C(=O)O)C(=O)O)C3=O (some centres undefined)
5. Nc1ccc(S(=O)(=O)Nc2ccnn2-c2ccccc2)cc1
6. C#C[C@]1(O)CCC2C3CCC4=C(CCC(=O)C4)C3CC[C@@]21C (some centres undefined)
7. COc1cc(N)c(Cl)cc1C(=O)NC1CCN(Cc2ccccc2)CC1

1: 0.992; 2: 0.984; 3: 0.936; 4: 0.817; 5: 1; 6: 0.996; 7: 0.949

Taken from PubChem BioAssay AID1159580.
